So I've got a bunch of compounds here, and I need their AC50 values.
# TEST TARGET: UniProt P08908
# Sequence (P08908 whole entry): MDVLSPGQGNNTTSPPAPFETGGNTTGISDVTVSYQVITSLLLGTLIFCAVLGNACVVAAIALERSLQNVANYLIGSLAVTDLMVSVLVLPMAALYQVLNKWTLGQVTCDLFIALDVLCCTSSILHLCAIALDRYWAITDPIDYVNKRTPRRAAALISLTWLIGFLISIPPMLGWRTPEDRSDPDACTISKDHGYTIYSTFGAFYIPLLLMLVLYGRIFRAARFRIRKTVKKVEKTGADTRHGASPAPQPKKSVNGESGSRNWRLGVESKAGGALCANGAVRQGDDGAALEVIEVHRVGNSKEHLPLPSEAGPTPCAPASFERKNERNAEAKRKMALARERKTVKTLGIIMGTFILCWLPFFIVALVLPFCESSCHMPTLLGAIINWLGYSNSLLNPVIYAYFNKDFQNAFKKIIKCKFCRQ
# Type: functional, cell-based

Problem: What is its AC50 for UniProt P08908? Entry: `Nc1nc(N)nc(-c2cc(Cl)ccc2Cl)n1`
Result: > 30 µM

Problem: Request - read-out AC50 | tested on UniProt P08908 | compound `COc1ccc(-c2ccc3cc(C(=O)O)ccc3c2)cc1C12CC3CC(CC(C3)C1)C2`
Result: > 30 µM

Problem: Can you look up AC50 on UniProt P08908 for `CC=CC(=O)N(CC)c1ccccc1C` ?
Result: > 10 µM

Problem: Recall the recorded AC50 for COC(=O)C1=C(C)NC(C)=C(C(=O)OC2CCCN(Cc3ccccc3)C2)C1c1cccc([N+](=O)[O-])c1 (centres undefined) with UniProt P08908 and state it.
Result: > 30 µM

Problem: Param readout= AC50; system= UniProt P08908; entry= `Cn1c(=O)c2c(ncn2CC2OCCO2)n(C)c1=O` ; returns value.
Result: > 30 µM

Problem: Give UniProt P08908 AC50 for CC1=C(C(=O)O)N2C(=O)[C@@H](NC(=O)[C@H](N)c3ccccc3)[C@H]2SC1 [CEPHALEXIN ANHYDROUS]
Result: > 30 µM

Problem: AC50 of `CN(C)/N=N/c1[nH]cnc1C(N)=O` on UniProt P08908?
Result: > 10 µM

Problem: AC50 of `CCOC(=O)[N-]c1cn(N2CCOCC2)n[o+]1` on UniProt P08908?
Result: > 30 µM

Problem: # get_value(readout= AC50, system= UniProt P08908) for `c1cnc(N2CCN(Cc3ccc4c(c3)OCO4)CC2)nc1`
Result: > 30 µM

Problem: Param readout = AC50; param system = UniProt P08908; param query = `CC(C)C[C@H]1C(=O)N2CCC[C@H]2[C@]2(O)O[C@](NC(=O)[C@@H]3C=C4c5cccc6[nH]c(Br)c(c56)C[C@H]4N(C)C3)(C(C)C)C(=O)N12` ; response: value
Result: 3.1 µM

Problem: Recall the recorded AC50 for CC(CC(c1ccccc1)c1ccccc1)NC(C)(C)C (centres undefined) with UniProt P08908 and state it.
Result: > 30 µM

Problem: What reported AC50 corresponds to `O=C(O)CCCCCCCC(=O)O` on UniProt P08908?
Result: > 10 µM

Problem: API: value(readout=AC50, system=UniProt P08908) for record `CC(C)C(=O)c1c(C(C)C)nn2ccccc12`
Result: > 30 µM

Problem: Look up AC50 with UniProt P08908 for this compound: O=[N+]([O-])O[C@@H]1CO[C@H]2[C@@H]1OC[C@@H]2O [ISOSORBIDE MONONITRATE]
Result: > 10 µM

Problem: Value wanted: AC50 (UniProt P08908) of entry `Cc1nnc2n1-c1ccc(Cl)cc1C(c1ccccc1Cl)=NC2`
Result: > 10 µM

Problem: Form field: AC50 recorded for CN1C(=O)C(O)N=C(c2ccccc2)c2cc(Cl)ccc21 (centres undefined) with UniProt P08908 (enter value)
Result: > 10 µM

Problem: Item `C[C@]12CC[C@H]3[C@@H](CCC4=CC(=O)CC[C@@]43C)[C@@H]1CC[C@@H]2O` with UniProt P08908 - AC50?
Result: > 10 µM

Problem: Request body: readout AC50, system UniProt P08908, query C=CCc1ccccc1OCC(O)CNC(C)C (centres undefined) . Return the value.
Result: > 30 µM

Problem: Recall the recorded AC50 for CCCC(=O)O[C@]1(C(=O)CO)CC[C@H]2[C@@H]3CCC4=CC(=O)CC[C@]4(C)[C@H]3[C@@H](O)C[C@@]21C [HYDROCORTISONE BUTYRATE] with UniProt P08908 and state it.
Result: > 10 µM
